These entries and their values trace back to paper PMC11003494.

Target: hCA IX (Homo sapiens)
outcome_measure: pKi
Value format note: pKi is -log10 of concentration (mol/L); just state the number.

COC(=O)Cc1c(C)c2ccc(OCC(=O)c3ccc(OC)cc3)c(C)c2oc1=O [EMAC10163b] : 6.28
Cc1c(CC(=O)O)c(=O)oc2c(C)c3occ(-c4ccccc4)c3cc12 [EMAC10164i] : 5.50

Consider now this further molecule.
Record Cc1c(CC(=O)O)c(=O)oc2c(C)c3occ(-c4ccc(Cl)cc4)c3cc12 [EMAC10164j] . Reported pKi: 5.49

----------
Parameter Ki, tested on hCA XII (Homo sapiens), listed per item.
Sequence (O43570 30-289 limits assumed): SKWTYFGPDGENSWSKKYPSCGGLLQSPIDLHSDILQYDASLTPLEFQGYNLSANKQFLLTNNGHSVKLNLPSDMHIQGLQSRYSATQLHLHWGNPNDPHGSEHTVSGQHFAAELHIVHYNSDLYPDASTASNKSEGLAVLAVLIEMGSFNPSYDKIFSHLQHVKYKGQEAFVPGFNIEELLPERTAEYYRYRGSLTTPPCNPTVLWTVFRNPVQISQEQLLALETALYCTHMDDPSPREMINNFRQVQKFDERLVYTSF
Respond numerically; units are µM and should not be typed.

COC(=O)Cc1c(C)c2ccc(OCC(=O)c3cccc(OC)c3)c(C)c2oc1=O [EMAC10163k] : 4.86
Cc1c(CC(=O)O)c(=O)oc2c(C)c3occ(-c4ccc(Cl)cc4)c3cc12 [EMAC10164j] : 7.86
Cc1c(CC(=O)O)c(=O)oc2c(C)c3occ(-c4ccccc4)c3cc12 [EMAC10164i] : 3.38

Summary: Cc1c(CC(=O)O)c(=O)oc2c(C)c3occ(-c4ccc(Br)cc4)c3cc12 [EMAC10164c] , hCA XII (Homo sapiens), Ki = 4.44

Measured Ki for this entry COc1cccc(-c2coc3c(C)c4oc(=O)c(CC(=O)O)c(C)c4cc23)c1 [EMAC10164k] on hCA XII (Homo sapiens): 3.66

With hCA XII (Homo sapiens) as the test system, Cc1ccc(-c2coc3c(C)c4oc(=O)c(CC(=O)O)c(C)c4cc23)cc1 [EMAC10164a] showed Ki of 4.09

// assay hCA XII (Homo sapiens), entry COc1ccc(-c2coc3c(C)c4oc(=O)c(CC(=O)O)c(C)c4cc23)cc1 [EMAC10164b] , Ki value = 4.59

Considering COC(=O)Cc1c(C)c2ccc(OCC(=O)c3ccc(Br)cc3)c(C)c2oc1=O [EMAC10163c] , its Ki with hCA XII (Homo sapiens) was recorded as 5.43
